Where do the numbers come from? From ChEMBL document CHEMBL1125532.

# system: Muscarinic acetylcholine receptor M1 (Mus musculus)
# Sequence (P12657 whole entry): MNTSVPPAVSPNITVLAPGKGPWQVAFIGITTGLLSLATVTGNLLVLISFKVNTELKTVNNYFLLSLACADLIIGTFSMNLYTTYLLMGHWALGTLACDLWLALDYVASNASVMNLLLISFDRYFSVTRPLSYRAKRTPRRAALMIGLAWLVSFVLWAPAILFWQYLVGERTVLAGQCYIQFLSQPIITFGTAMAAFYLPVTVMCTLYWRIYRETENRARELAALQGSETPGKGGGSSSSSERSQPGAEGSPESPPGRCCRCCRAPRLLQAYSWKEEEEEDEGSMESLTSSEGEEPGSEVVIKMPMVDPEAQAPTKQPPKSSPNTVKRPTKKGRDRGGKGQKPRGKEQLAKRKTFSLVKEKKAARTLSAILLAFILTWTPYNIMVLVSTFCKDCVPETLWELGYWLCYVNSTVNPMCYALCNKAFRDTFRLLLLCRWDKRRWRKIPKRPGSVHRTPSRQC
# test_summary: biochemical
# Description: Inhibition of [3H]pirenzepine binding to mouse muscarinic acetylcholine receptor M1 from cerebral cortex
value_type: pIC50
The scale used: pIC50 is minus the common logarithm of the concentration in molar units.

Which value of pIC50 has been reported for CN(C)Cc1ccc(CSCCNc2cc(Nc3ccc(F)cc3)c([N+](=O)[O-])cc2[N+](=O)[O-])o1 in the records?
5.68

Quick one: pIC50 of CN(C)Cc1ccc(CSCCNc2cc(NN)c([N+](=O)[O-])cc2[N+](=O)[O-])o1 ?
5.42

Data request, read-out pIC50, for CN(C)Cc1ccc(CSCCNc2cc(NCc3cccnc3)c([N+](=O)[O-])cc2[N+](=O)[O-])o1
6.42

Which pIC50 is reported for this compound? CN(C)Cc1ccc(CSCCNc2ccc(F)cc2[N+](=O)[O-])o1
5.40

Give the measured pIC50 of CN(C)Cc1ccc(CSCCNc2cc(F)c([N+](=O)[O-])cc2[N+](=O)[O-])o1 .
5.74

----------
# system: Muscarinic acetylcholine receptor M1 (Mus musculus)
# test_summary: biochemical
# Description: Binding affinity against mouse Muscarinic acetylcholine receptor M1 using cerebral cortex and [3H]pirenzepine
value_type: pIC50
Hey, just a heads up that pIC50 is the negative log base 10 of the concentration in molar.

For the compound shown here, CN(C)Cc1ccc(CSCCNc2nnccc2[N+](=O)[O-])o1 , give the reported pIC50.
6.01

----------
# system: Muscarinic acetylcholine receptor M2 (Mus musculus, UniProt Q9ERZ4)
# Sequence (Q9ERZ4 whole entry): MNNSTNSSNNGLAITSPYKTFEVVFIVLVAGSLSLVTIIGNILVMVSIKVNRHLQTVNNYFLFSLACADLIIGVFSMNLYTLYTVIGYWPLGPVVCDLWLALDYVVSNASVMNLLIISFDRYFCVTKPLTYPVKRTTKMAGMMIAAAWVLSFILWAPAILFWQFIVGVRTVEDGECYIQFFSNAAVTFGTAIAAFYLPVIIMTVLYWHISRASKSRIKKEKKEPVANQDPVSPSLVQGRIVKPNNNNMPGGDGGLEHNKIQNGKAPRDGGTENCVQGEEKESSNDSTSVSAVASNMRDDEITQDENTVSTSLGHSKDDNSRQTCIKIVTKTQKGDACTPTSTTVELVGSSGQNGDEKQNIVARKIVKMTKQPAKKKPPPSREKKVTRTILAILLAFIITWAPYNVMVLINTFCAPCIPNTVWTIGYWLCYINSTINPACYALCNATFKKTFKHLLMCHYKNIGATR
# test_summary: biochemical
# Description: Ability to displace [3H]methylscopolamine ([3H]NMS) from mouse cerebral cortex
value_type: Ki (µM)
Kindly provide the numeric value in µM only, without the unit symbol.

For Muscarinic acetylcholine receptor M2 (Mus musculus, UniProt Q9ERZ4), provide Ki of CN(C)Cc1ccc(CSCCNc2ccc([N+](=O)[O-])cc2[N+](=O)[O-])o1 please.
12

Missing value: Ki, Muscarinic acetylcholine receptor M2 (Mus musculus, UniProt Q9ERZ4), entry CN(C)Cc1ccc(CSCCNc2cc(N)c([N+](=O)[O-])cc2[N+](=O)[O-])o1 . Fill in?
9.5

Item O=C1CCCN1CC#CCN1CCCC1 with Muscarinic acetylcholine receptor M2 (Mus musculus, UniProt Q9ERZ4) - Ki?
1.5

Return Ki measured with Muscarinic acetylcholine receptor M2 (Mus musculus, UniProt Q9ERZ4) given this compound: CN(C)Cc1ccc(CSCCNc2cc(NN)c([N+](=O)[O-])cc2[N+](=O)[O-])o1
12

----------
# system: Muscarinic acetylcholine receptor M2 (Mus musculus)
# test_summary: biochemical
value_type: Ki (nM)
Respond numerically; units are nM and should not be typed.

What value of measured Ki is listed for CN(C)Cc1ccc(CSCCNc2cc(NN)c([N+](=O)[O-])cc2[N+](=O)[O-])o1 ?
1100

Can you share its Ki? I mean this compound: CN(C)Cc1ccc(CSCCNc2cc(N)c([N+](=O)[O-])cc2[N+](=O)[O-])o1
460

I am curious: what Ki value has been reported for CN(C)Cc1ccc(CSCCNc2ccc([N+](=O)[O-])cc2[N+](=O)[O-])o1 ?
870

For the compound shown here, O=C1CCCN1CC#CCN1CCCC1 [OXOTREMORINE] , give the reported Ki.
1.7

----------
Entries with their measured pIC50, system UniProt P06276:
pIC50 (log units): -log10 of the concentration in mol/L.

Query: pIC50; subject: CN(C)Cc1ccc(CSCCNc2cc(F)c([N+](=O)[O-])cc2[N+](=O)[O-])o1
5.42

# input molecule: CN(C)Cc1ccc(CSCCNc2cc(NCCCN3CCOCC3)c([N+](=O)[O-])cc2[N+](=O)[O-])o1 ; wanted: its pIC50
5.33

State the recorded pIC50 for this entry: CN(C)Cc1ccc(CSCCNc2cc(Nc3ccc(F)cc3)c([N+](=O)[O-])cc2[N+](=O)[O-])o1
5.96

Quick check: pIC50 of CCCNc1cc(NCCSCc2ccc(CN(C)C)o2)c([N+](=O)[O-])cc1[N+](=O)[O-] ?
5.42

Can you share its pIC50? I mean this molecule: CN(C)Cc1ccc(CSCCNc2cc(N)c([N+](=O)[O-])cc2[N+](=O)[O-])o1
5.62

Query (molecule): CN(C)Cc1ccc(CSCCNc2cc(NN)c([N+](=O)[O-])cc2[N+](=O)[O-])o1 ; field requested: pIC50
5.29

Would you kindly share the measured pIC50 for CN(C)Cc1ccc(CSCCNc2cc(Nc3ccccc3)c([N+](=O)[O-])cc2[N+](=O)[O-])o1 ?
5.80

So what does the record say about pIC50 for CNc1cc(NCCSCc2ccc(CN(C)C)o2)c([N+](=O)[O-])cc1[N+](=O)[O-] ?
5.48

Fill in: pIC50 of CN(C)CCNc1cc(NCCSCc2ccc(CN(C)C)o2)c([N+](=O)[O-])cc1[N+](=O)[O-] is ___
5.85
